# Test system: MRSA ATCC 700699
# EXPERIMENT: microbe, parasite or virus in culture
# CONDITION PARAMETERS: ATCC 700699
Bridge positions count the residues as written; N and C are the ends. Square brackets hold non-standard residues; d marks the D form. Peptide text beside a SMILES is read from it. dNMeF = CN[C@H](Cc1ccccc1)C(=O)O
Recorded MIC values for a group of compounds are listed next.

| COMPOUND | MIC / µg/mL |
| --- | --- |
| CC[C@@H](C)[C@@H](NC(=O)[C@@H](CCCNC(=N)N)NC(=O)[C@H](CCCNC(=N)N)NC(=O)[C@@H](NC(=O)[C@@H](Cc1ccccc1)NC)[C@@H](C)CC)C(=O)N[C@H](C(=O)N[C@@H](CO)C(=O)N[C@H]1C(=O)N[C@@H](CCCNC(=N)N)C(=O)N[C@@H](CC(C)C)C(=O)N[C@@H]([C@@H](C)CC)C(=O)O[C@H]1C)[C@@H](C)CC [Compound 31, Arg3-D-Arg4-Arg9-Leu10-teixobactin] (H-[dNMeF]IR[dR][dI]IS[dT]RLI; ester 8-C) | 2 |
| CC[C@@H](C)[C@@H](NC(=O)[C@@H](CCCNC(=N)N)NC(=O)[C@H](CO)NC(=O)[C@@H](NC(=O)[C@@H](Cc1ccccc1)NC)[C@@H](C)CC)C(=O)N[C@H](C(=O)N[C@@H](CO)C(=O)N[C@H]1C(=O)N[C@@H](C)C(=O)N[C@@H](CC(C)C)C(=O)N[C@@H]([C@@H](C)CC)C(=O)O[C@H]1C)[C@@H](C)CC [Compound 26, D-Arg4-Leu10-teixobactin] | 0.25 |

----------
# Test system: Staphylococcus aureus ATCC 29213
# EXPERIMENT: microbe, parasite or virus in culture
# CONDITION PARAMETERS: ATCC 29213
# Method: For MIC testing all peptides were dissolved in DMSO (according to the method of L. L. Ling, et al., Nature 2015, 517, 455-459). Bacteria were grown on Mueller Hinton broth (oxoid). All incubations were at 37° C. Dilutions were carried out using Mueller Hinton. 100 μl of autoclaved Mueller Hinton broth was added to wells 2-12 on a 96-well plate. […] The MIC was determined to be the lowest concentration at which there was no growth visible.
Bridge positions count the residues as written; N and C are the ends. Square brackets hold non-standard residues; d marks the D form. Peptide text beside a SMILES is read from it. dNMeF = CN[C@H](Cc1ccccc1)C(=O)O
OBSERVED PROPERTY: MIC (µg/mL)

| COMPOUND | SYSTEM NAME | OBSERVED PROPERTY | ASSAY RESULT |
| --- | --- | --- | --- |
| CC[C@@H](C)[C@@H](NC(=O)[C@@H](CCC(N)=O)NC(=O)[C@H](CCCNC(=N)N)NC(=O)[C@@H](NC(=O)[C@@H](Cc1ccccc1)NC)[C@@H](C)CC)C(=O)N[C@H](C(=O)N[C@@H](CO)C(=O)N[C@H]1C(=O)N[C@@H](CCCNC(=N)N)C(=O)N[C@@H](CC(C)C)C(=O)N[C@@H]([C@@H](C)CC)C(=O)O[C@H]1C)[C@@H](C)CC [Compound 29, Arg3-Arg9-Leu10-teixobactin] (H-[dNMeF]IR[dQ][dI]IS[dT]RLI; ester 8-C) | Staphylococcus aureus ATCC 29213 | MIC | 1 |
| CC[C@@H](C)[C@@H](NC(=O)[C@@H](CCC(N)=O)NC(=O)[C@H](CO)NC(=O)[C@@H](NC(=O)[C@@H](Cc1ccccc1)NC)[C@@H](C)CC)C(=O)N[C@H](C(=O)N[C@@H](CO)C(=O)N[C@H]1C(=O)N[C@@H](C)C(=O)N[C@@H](C)C(=O)N[C@@H]([C@@H](C)CC)C(=O)O[C@H]1C)[C@@H](C)CC | Staphylococcus aureus ATCC 29213 | MIC | 1 |
| CC[C@@H](C)[C@@H](NC(=O)[C@@H](CCC(N)=O)NC(=O)[C@H](CO)NC(=O)[C@@H](NC(=O)[C@@H](Cc1ccccc1)NC)[C@@H](C)CC)C(=O)N[C@H](C(=O)N[C@@H](CO)C(=O)N[C@H]1C(=O)N[C@@H](C)C(=O)N[C@@H](C(C)C)C(=O)N[C@@H]([C@@H](C)CC)C(=O)O[C@H]1C)[C@@H](C)CC | Staphylococcus aureus ATCC 29213 | MIC | 0.25 |
